The measurements presented in this section are drawn from PubChem BioAssay (NCI).

- Tested on: SW-620 colon
- Experiment: NCI tumour cell line growth inhibition, 48 h
Measured Endpoint: GI50

Exercise: What measured GI50 goes with CCCCCCCCCCCCCCCCCC[S+](C)CC (stereo unspecified) ?
Key: 1460 nM

Exercise: What measured GI50 goes with CCC(C)C1NC(=O)C(NC(=O)C(CC(C)C)N(C)C(=O)[C@@H]2CC(O)CN2C(=O)[C@H](C)O)C(C)OC(=O)[C@H](Cc2ccc(OC)cc2)N(C)C(=O)[C@@H]2CCCN2C(=O)[C@H](CC(C)C)NC(=O)C(C)C(=O)[C@H](C(C)C)OC(=O)CC1O (stereo partly specified) ?
Key: 58.1 nM

Exercise: What measured GI50 goes with `COc1cc(C(=O)NN=C2c3ccccc3-c3ccccc32)cc(OC)c1OC` ?
Key: 2530 nM

Exercise: What measured GI50 goes with `CCOc1ccc2c(c1)C(=O)c1c-2n(CCCN=[N+]=[N-])c(=O)c2cc([N+](=O)[O-])ccc12` ?
Key: 3420 nM

Exercise: What measured GI50 goes with `O=C(N/N=C/c1ccncc1)c1ccc(F)cc1` ?
Key: > 40000 nM

Exercise: What measured GI50 goes with `CN(C)C1CN(C(=O)c2cc(-c3ccc4ncnc(N5CCc6cc(F)c(Cl)cc65)c4c3)cnc2N)C1` ?
Key: 1480 nM

Exercise: What measured GI50 goes with `O=C1c2ccc3c4c(ccc(c24)C(=O)N1CCNCc1ccccc1)C(=O)N(CCNCc1ccccc1)C3=O` ?
Key: 306 nM

Exercise: What measured GI50 goes with `COc1cc(C)[nH]c(=O)c1CNC(=O)c1c(C)n([C@H](C)C2CCN(CC(F)(F)F)CC2)c2ccccc12` ?
Key: 65300 nM

Exercise: What measured GI50 goes with `COc1ccc(/C=C\c2cc(OC)c(OC)c(OC)c2)c(NS(=O)(=O)c2ccc(F)cc2)c1O` ?
Key: 43.4 nM

Exercise: What measured GI50 goes with `Nc1c(C(=O)Nc2cccc(C(F)(F)F)c2)sc2nc3c(cc12)CCCCCC3` ?
Key: 3750 nM

Exercise: What measured GI50 goes with `CC(=O)ON=C1C=CC(=C(C#N)c2ccccc2)C=C1` ?
Key: 452 nM

Exercise: What measured GI50 goes with `C=CC(=O)N1CCC[C@@H](n2nc(-c3ccc(Oc4ccccc4)cc3)c3c(N)ncnc32)C1` ?
Key: > 10000 nM

Exercise: What measured GI50 goes with `COc1ccc(/C=C/C(=O)/C=C(O)/C=C/c2ccc(OC)c(OC)c2)cc1OC` ?
Key: 1850 nM

Exercise: What measured GI50 goes with `[CH3][Hg]/[N]=C(/N)NC#N` ?
Key: 2230 nM

Exercise: What measured GI50 goes with `COC(=O)c1cccc(NC(=O)c2ccc(NC3=C(Cl)C(=O)N(Cc4ccccc4)C3=O)cc2)c1` ?
Key: 22300 nM

Exercise: What measured GI50 goes with `CC[C@@]1(O)C(=O)OCc2c1cc1n(c2=O)Cc2c-1nc1cc(F)c(C)c3c1c2[C@@H](NC(=O)CO)CC3` ?
Key: < 10 nM

---

- Tested on: DMS 114 small cell lung
- Experiment: NCI tumour cell line growth inhibition, 48 h
Measured Endpoint: TGI

Exercise: What measured TGI goes with `N#C/C(=C\c1ccc[nH]1)C(=O)c1ccccc1` ?
Key: > 100 µM

Exercise: What measured TGI goes with `Cc1ccccc1-n1c(CCl)nc2ccc(Br)cc2c1=O` ?
Key: 20.5 µM

Exercise: What measured TGI goes with `COC(=O)C1=CC(=O)[C@@H]2CCCC[C@H]12` ?
Key: > 100 µM

Exercise: What measured TGI goes with `COc1cc(CC(=O)O)c([N+](=O)[O-])cc1OC` ?
Key: > 100 µM

Exercise: What measured TGI goes with `CN1C2(c3ccccc3)C(C(=O)c3ccccc3)=C(C(=O)c3ccccc3)C1(c1ccccc1)c1c(-c3ccccc3)sc(-c3ccccc3)c12` ?
Key: > 100 µM

Exercise: What measured TGI goes with C=C1CN2CCc3c([nH]c4ccccc34)C2CC1CC(=O)N(C)C (stereo not given) ?
Key: > 309 µM

Exercise: What measured TGI goes with Cc1ccc(NC(=O)CC2SC(=Nc3ccc(Cl)cc3)NC2=O)cc1C (stereo not given) ?
Key: 42.1 µM

Exercise: What measured TGI goes with `N#CCCN(c1ccc(C=O)cc1)S(=O)(=O)c1ccccc1` ?
Key: > 100 µM

Exercise: What measured TGI goes with `[CH3][Hg]/[N]=C(/N)NC#N` ?
Key: 3.43 µM

Exercise: What measured TGI goes with O=C(O)CCC1c2[nH]c3ccccc3c2CCN1Cc1ccccc1 (stereo not given) ?
Key: > 100 µM

Exercise: What measured TGI goes with CC(N)C(C)c1ccccc1 (stereo not given) ?
Key: > 100 µM

Exercise: What measured TGI goes with COc1nc(NC2OC(CO)C(O)C(O)C2O)c(N)c(=O)[nH]1 (stereo not given) ?
Key: > 100 µM

Exercise: What measured TGI goes with NC(CSCSCC(N)C(=O)O)C(=O)O (stereo not given) ?
Key: > 225 µM

Exercise: What measured TGI goes with CC(=O)O[C@@H]1CC[C@@]2(C)C(=O)C34C[C@@]5(C)C([C@@H](C)CCCC(C)C)CCC5(C)[C@](O)(O3)C(=O)[C@H]4C2C1(C)C (stereo not given in full) ?
Key: 33.6 µM

Exercise: What measured TGI goes with `COc1ccc(-c2cc(=O)c3cc(O)ccc3o2)c(OC)c1OC` ?
Key: > 100 µM

Exercise: What measured TGI goes with N#Cc1cccc(C2C(=O)c3ccc(C(=O)c4ccc5c(c4)C(=O)N(c4ccc(Oc6ccc(N7C(=O)c8ccc(C(=O)c9ccc%10c(c9)C(=O)N(c9cccc(C#N)c9)C%10=O)cc8C7=O)cc6)cc4)C5=O)cc3C2=O)c1 (stereo not given) ?
Key: > 100 µM

Exercise: What measured TGI goes with CC1OC(CO)(n2cnc3c(N)ncnc32)C(O)C1O (stereo not given) ?
Key: > 100 µM

Exercise: What measured TGI goes with `Cc1cc(C)c(/C=N/NS(=O)(=O)c2ccccc2)c(C)c1` ?
Key: > 100 µM

Exercise: What measured TGI goes with CC#CC#C/C=C1\C=CC2(OC=CC2O)O1 (stereo not given) ?
Key: > 22.5 µM

Exercise: What measured TGI goes with `Cn1c(=O)n(C2(C)CSC2)c2ccccc21` ?
Key: > 100 µM

---

- Test system: NCI-H522 lung
- Experiment: NCI tumour cell line growth inhibition, 48 h
Please go through the items and note down their GI50.

Exercise: What measured GI50 goes with COc1cc(C2CC(c3cccc(Nc4ccnc5cc(Cl)ccc45)c3)=NN2c2ccccc2)cc(OC)c1OC (stereo not drawn) ?
Key: 3.6 µM

Exercise: What measured GI50 goes with Nc1n[nH]c2ccc([C@@H]3Nc4ccc5cn[nH]c5c4[C@H]4C5CCC(C5)[C@@H]34)cc12 (stereo partly drawn) ?
Key: 0.385 µM

Exercise: What measured GI50 goes with CCC(C)C1NC(=O)C(NC(=O)C(CC(C)C)N(C)C(=O)[C@@H]2CC(O)CN2C(=O)[C@H](C)O)C(C)OC(=O)[C@H](Cc2ccc(OC)cc2)N(C)C(=O)[C@@H]2CCCN2C(=O)[C@H](CC(C)C)NC(=O)C(C)C(=O)[C@H](C(C)C)OC(=O)CC1O (stereo partly drawn) ?
Key: 0.0208 µM

---

Please go through the items and note down their TGI.
- System: M19-MEL melanoma
- Experiment: NCI tumour cell line growth inhibition, 48 h

Exercise: For the record `O=C(Cc1nc2ccccc2o1)C(=O)Nc1ccc(Cl)cc1Cl` , what value of TGI is listed for M19-MEL melanoma?
Key: > 100 µM

Exercise: For the record `O=c1oc2ccccc2n1P(=O)(Oc1ccc(Cl)cc1)n1c(=O)oc2ccccc21` , what value of TGI is listed for M19-MEL melanoma?
Key: > 100 µM

Exercise: For the record CC(C)C(CCOS(=O)(=O)O)CCC(C)[C@H]1[C@@H](O)C(O)C2[C@]3(O)C[C@@H](O)C4(O)C[C@@H](O)CC[C@]4(C)C3CC[C@@]21C (stereo partly drawn) , what value of TGI is listed for M19-MEL melanoma?
Key: > 100 µM

Exercise: For the record `COc1ccc(-c2cc(=O)c3cc(O)ccc3o2)c(OC)c1OC` , what value of TGI is listed for M19-MEL melanoma?
Key: > 100 µM

Exercise: For the record CC1[C@@H]2CC=C3[C@H]4CCC5Cc6nc7c(nc6C[C@@]5(C)C4CC(=O)[C@]32CO[C@]12OC(C)(C)CC2O)CC1CC[C@@H]2C3=C[C@H]4O[C@@]5(O[C@@](C)(CO)C[C@@H]5O)C(C)[C@@]4(O)[C@]3(C)[C@@H](O)CC2[C@]1(C)C7 (stereo partly drawn) , what value of TGI is listed for M19-MEL melanoma?
Key: > 3.65 µM

Exercise: For the record `COC(=O)C1=CC(=O)[C@@H]2CCCC[C@H]12` , what value of TGI is listed for M19-MEL melanoma?
Key: > 100 µM

Exercise: For the record N#Cc1cccc(C2C(=O)c3ccc(C(=O)c4ccc5c(c4)C(=O)N(c4ccc(Oc6ccc(N7C(=O)c8ccc(C(=O)c9ccc%10c(c9)C(=O)N(c9cccc(C#N)c9)C%10=O)cc8C7=O)cc6)cc4)C5=O)cc3C2=O)c1 (stereo not drawn) , what value of TGI is listed for M19-MEL melanoma?
Key: > 100 µM

Exercise: For the record `CC(C)(C)CI` , what value of TGI is listed for M19-MEL melanoma?
Key: 53.9 µM
